Ref: patent US10808007B2

Reported IC50 values for a set of molecules
System: HEK 293T (human embryonic kidney cells)
ASSAY_EXPLANATION: Cytotoxic assay (CellTiter-Glo, 72 h), HEK 293T
Type: cell-based
CONDITION_DETAILS: Homo sapiens, HEK-293T, read-out: HEK 293T IC50 (nM)
VALUE_TYPE: IC50

1) CCCCN1CCCC[C@@H]1C(=O)N[C@H](C(=O)N(C)[C@H](C[C@@H](OC(C)=O)c1nc(C(=O)N[C@H]2CC[C@H](C(=O)O)CC2)cs1)C(C)C)C(C)C: > 100 nM
2) COC(=O)CC12CC(NC(=O)c3csc([C@@H](C[C@H](C(C)C)N(C)C(=O)[C@@H](NC(=O)[C@H]4CCCCN4C)C(C)C)OC(C)=O)n3)(C1)C2: 1.79 nM
3) COC(=O)[C@@H](C)C[C@H](Cc1ccccc1)NC(=O)c1csc(CC[C@H](C(C)C)N(C)C(=O)[C@@H](NC(=O)[C@H]2CCCCN2C)C(C)C)n1: > 100 nM
4) COC(=O)C12CC(NC(=O)c3csc([C@@H](C[C@H](C(C)C)N(C)C(=O)[C@@H](NC(=O)[C@H]4CCCCN4C)C(C)C)OC(C)=O)n3)(C1)C2: 0.35 nM
5) CCCCN1CCCC[C@@H]1C(=O)N[C@H](C(=O)N(C)[C@H](C[C@@H](OC(C)=O)c1nc(C(=O)N[C@H]2CC[C@H](C(=O)OC)CC2)cs1)C(C)C)C(C)C: > 100 nM
6) CC[C@H](C)[C@H](NC(=O)[C@H]1CCCCN1C)C(=O)N[C@H](C[C@@H](OC(C)=O)c1nc(C(=O)N[C@@H](Cc2ccccc2)C[C@H](C)C(=O)OC)cs1)C(C)C: 0.56 nM
7) CCCCN1CCCC[C@@H]1C(=O)N[C@H](C(=O)N(C)[C@H](CCc1nc(C(=O)N[C@@H](Cc2ccccc2)C[C@H](C)C(=O)OC)cs1)C(C)C)C(C)C: > 100 nM
8) CCCCN1CCCC[C@@H]1C(=O)N[C@H](C(=O)N(C)[C@H](CCc1nc(C(=O)N[C@@H](Cc2ccccc2)C[C@H](C)C(=O)OC)cs1)C(C)C)[C@@H](C)CC: > 100 nM
9) COC(=O)[C@@H](C)C[C@H](Cc1ccc(F)cc1)NC(=O)c1csc([C@@H](C[C@H](C(C)C)N(C)C(=O)[C@@H](NC(=O)[C@H]2CCCCN2C)C2CC2)OC(C)=O)n1: ~105 nM

----------
The entries below come with measured pIC50 values attached.
Test system: MES SA (uterine sarcoma cells)
ASSAY_EXPLANATION: Cytotoxic assay (CellTiter-Glo, 72 h), MES SA
Assay type: cell-based
CONDITION_DETAILS: Homo sapiens, MES-SA, read-out: IC50 MES SA
pIC50: −log10 of the molar value.
VALUE_TYPE: pIC50

1. CC[C@H](C)[C@H](NC(=O)[C@H]1CCCCN1C)C(=O)N(C)[C@H](C[C@@H](OC(C)=O)c1cccc(C(=O)N[C@@H](Cc2ccccc2)C[C@H](C)C(=O)O)n1)C(C)C [Tb39]: 9.05
2. COC(=O)[C@@H](C)C[C@H](Cc1ccccc1)NC(=O)c1csc([C@@H](C[C@H](C(C)C)N(C)C(=O)[C@@H](NC(=O)[C@H]2CCCCN2C)C2CC2)OC(C)=O)n1 [Tb20]: 10.34
3. COC(=O)[C@@H](C)C[C@H](Cc1ccccc1)NC(=O)c1csc([C@@H](C[C@H](C(C)C)N(C)C(=O)[C@@H](NC(=O)[C@H]2CCCN2C)C2CC2)OC(C)=O)n1 [Tb26]: 9.70
4. COC(=O)[C@@H](C)C[C@H](Cc1ccccc1)NC(=O)c1cccc([C@@H](C[C@H](C(C)C)N(C)C(=O)[C@@H](NC(=O)[C@H]2CCCCN2C)C2CC2)OC(C)=O)n1 [Tb36]: 9.51
5. COC(=O)[C@@H](C)C[C@H](Cc1ccccc1)NC(=O)c1csc([C@@H](C[C@H](C(C)C)N(C)C(=O)[C@@H](NC(=O)[C@H]2CCCCN2C)C2CCCCC2)OC(C)=O)n1 [Tb33]: 10.18

----------
Tested on: MES SA (uterine sarcoma cells)
ASSAY_EXPLANATION: Cytotoxic assay (CellTiter-Glo, 72 h), MES SA
Type: cell-based
CONDITION_DETAILS: MES SA; read-out: IC50 MES SA
VALUE_TYPE: IC50 (nM)

1) CC[C@H](C)[C@H](NC(=O)[C@H]1CCCCN1C)C(=O)N(C)[C@H](C[C@@H](OC(C)=O)c1nc(C(=O)NC23C4C5C2C2C3C4C52C(=O)OC)cs1)C(C)C (stereo partly shown): 0.84

----------
Measured IC50 of individual entries
System: MES SA (uterine sarcoma cells)
ASSAY_EXPLANATION: Cytotoxic assay (CellTiter-Glo, 72 h), MES SA
Assay type: cell-based
CONDITION_DETAILS: Homo sapiens, MES-SA, read-out: MES SA IC50 (nM)
VALUE_TYPE: IC50

1. COC(=O)C12CC(NC(=O)c3csc([C@@H](C[C@H](C(C)C)N(C)C(=O)[C@@H](NC(=O)[C@H]4CCCCN4C)C(C)C)OC(C)=O)n3)(C1)C2: 0.93 nM
2. CCCCN1CCCC[C@@H]1C(=O)N[C@H](C(=O)N(C)[C@H](C[C@@H](OC(C)=O)c1nc(C(=O)N[C@H]2CC[C@H](C(=O)O)CC2)cs1)C(C)C)C(C)C: > 100 nM
3. CCCCN1CCCC[C@@H]1C(=O)N[C@H](C(=O)N(C)[C@H](C[C@@H](OC(C)=O)c1nc(C(=O)N[C@H]2CC[C@H](C(=O)OC)CC2)cs1)C(C)C)C(C)C: > 100 nM
4. COC(=O)[C@H]1CC[C@H](NC(=O)c2csc([C@@H](C[C@H](C(C)C)N(C)C(=O)[C@@H](NC(=O)[C@H]3CCCCN3C)C(C)C)OC(C)=O)n2)CC1: 6.16 nM
5. COC(=O)[C@@H](C)C[C@H](Cc1ccc(F)cc1)NC(=O)c1csc([C@@H](C[C@H](C(C)C)N(C)C(=O)[C@@H](NC(=O)[C@H]2CCCCN2C)C2CC2)OC(C)=O)n1: ~89.3 nM
6. CC(=O)O[C@H](C[C@H](C(C)C)N(C)C(=O)[C@@H](NC(=O)[C@H]1CCCCN1C)C(C)C)c1nc(C(=O)N[C@H]2CC[C@H](C(=O)O)CC2)cs1: > 100 nM
7. CCCCN1CCCC[C@@H]1C(=O)N[C@H](C(=O)N(C)[C@H](CCc1nc(C(=O)N[C@@H](Cc2ccccc2)C[C@H](C)C(=O)OC)cs1)C(C)C)[C@@H](C)CC: > 100 nM
8. COC(=O)[C@@H](C)C[C@H](Cc1ccccc1)NC(=O)c1csc([C@@H](C[C@H](C(C)C)N(C)C(=O)C2(NC(=O)[C@H]3CCCCN3C)CCCC2)OC(C)=O)n1: 7.18 nM
9. CCCCN1CCCC[C@@H]1C(=O)N[C@H](C(=O)N(C)[C@H](CCc1nc(C(=O)N[C@@H](Cc2ccccc2)C[C@H](C)C(=O)OC)cs1)C(C)C)C(C)C: > 100 nM
10. COC(=O)[C@@H](C)C[C@H](Cc1ccccc1)NC(=O)c1csc(CC[C@H](C(C)C)N(C)C(=O)[C@@H](NC(=O)[C@H]2CCCCN2C)C(C)C)n1: > 100 nM
11. CC[C@H](C)[C@H](NC(=O)[C@H]1CCCCN1C)C(=O)N[C@H](C[C@@H](OC(C)=O)c1nc(C(=O)N[C@@H](Cc2ccccc2)C[C@H](C)C(=O)OC)cs1)C(C)C: 0.92 nM
12. COC(=O)CC12CC(NC(=O)c3csc([C@@H](C[C@H](C(C)C)N(C)C(=O)[C@@H](NC(=O)[C@H]4CCCCN4C)C(C)C)OC(C)=O)n3)(C1)C2: ~2.73 nM

----------
System: HEK 293T (human embryonic kidney cells)
ASSAY_EXPLANATION: Cytotoxic assay (CellTiter-Glo, 72 h), HEK 293T
Type: cell-based
CONDITION_DETAILS: Homo sapiens; HEK 293T, Table 3; read-out: HEK 293T IC50
VALUE_TYPE: IC50 (nM)

1. CC[C@H](C)[C@H](NC(=O)[C@H]1CCCCN1C)C(=O)N[C@H](C[C@@H](OC(C)=O)c1nc(C(=O)N[C@@H](Cc2ccccc2)C[C@H](C)C(=O)O)cs1)C(C)C [Tb-54]: 0.73

----------
System: CNS cancer cell lines
ASSAY_EXPLANATION: NCI-60 cytotoxicity, CNS cancer
Assay type: cell-based
CONDITION_DETAILS: Homo sapiens; NCI-60, selected value
VALUE_TYPE: GI50 (nM)

1. COC(=O)[C@@H](C)C[C@H](Cc1ccccc1)NC(=O)c1csc([C@@H](C[C@H](C(C)C)N(C)C(=O)[C@@H](NC(=O)CN(C)C)C2CC2)OC(C)=O)n1 [Tb21]: 24.1
2. CC[C@H](C)[C@H](NC(=O)C12CC(NC)(C1)C2)C(=O)N(C)[C@H](C[C@@H](OC(C)=O)c1nc(C(=O)N[C@@H](Cc2ccccc2)C[C@H](C)C(=O)OC)cs1)C(C)C [Tb8]: 105
3. CC[C@H](C)[C@H](NC(=O)C12CC(NC(C)=O)(C1)C2)C(=O)N(C)[C@H](C[C@@H](OC(C)=O)c1nc(C(=O)N[C@@H](Cc2ccccc2)C[C@H](C)C(=O)OC)cs1)C(C)C [Tb7]: 219
4. CC[C@H](C)[C@H](NC(=O)NC(C)(C)C)C(=O)N(C)[C@H](C[C@@H](OC(C)=O)c1nc(C(=O)N[C@@H](Cc2ccccc2)C[C@H](C)C(=O)OC)cs1)C(C)C [Tb6]: 439
5. CC[C@H](C)[C@H](NC(=O)C12C3C4C1C1C2C3C41NC)C(=O)N(C)[C@H](C[C@@H](OC(C)=O)c1nc(C(=O)N[C@@H](Cc2ccccc2)C[C@H](C)C(=O)OC)cs1)C(C)C (stereo partly shown) [Tb10]: 271
6. CC[C@H](C)[C@H](NC(=O)[C@H]1CCCCN1C)C(=O)N(C)[C@H](C[C@@H](OC(C)=O)c1nc(C(=O)N[C@@H](Cc2ccccc2)C[C@H](C)C(=O)OC)cs1)C(C)C [Tb2]: 0.219
7. CC[C@@H](C)[C@H](NC(=O)CN(C)C)C(=O)N(C)[C@H](C[C@@H](OC(C)=O)c1nc(C(=O)NC23CC(C(=O)OC)(C2)C3)cs1)C(C)C [Tb16]: 127
8. CNC12C3C4C1C1C2C3C41C(=O)N[C@H](C(=O)N(C)[C@H](C[C@@H](OC(C)=O)c1nc(C(=O)N[C@@H](Cc2ccccc2)C[C@H](C)C(=O)OC)cs1)C(C)C)C1CC1 (stereo partly shown) [Tb23]: 119
